target: human ether-à-go-go-related gene (hERG) potassium channel (human, UniProt Q12809); experiment: primary screen, population patch clamp on CHO cells stably expressing hERG; higher = less effect of the substance;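 also: peak tail current of the secondary pulse compared with the same well before compound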
Sequence (Q12809 whole entry, looked up): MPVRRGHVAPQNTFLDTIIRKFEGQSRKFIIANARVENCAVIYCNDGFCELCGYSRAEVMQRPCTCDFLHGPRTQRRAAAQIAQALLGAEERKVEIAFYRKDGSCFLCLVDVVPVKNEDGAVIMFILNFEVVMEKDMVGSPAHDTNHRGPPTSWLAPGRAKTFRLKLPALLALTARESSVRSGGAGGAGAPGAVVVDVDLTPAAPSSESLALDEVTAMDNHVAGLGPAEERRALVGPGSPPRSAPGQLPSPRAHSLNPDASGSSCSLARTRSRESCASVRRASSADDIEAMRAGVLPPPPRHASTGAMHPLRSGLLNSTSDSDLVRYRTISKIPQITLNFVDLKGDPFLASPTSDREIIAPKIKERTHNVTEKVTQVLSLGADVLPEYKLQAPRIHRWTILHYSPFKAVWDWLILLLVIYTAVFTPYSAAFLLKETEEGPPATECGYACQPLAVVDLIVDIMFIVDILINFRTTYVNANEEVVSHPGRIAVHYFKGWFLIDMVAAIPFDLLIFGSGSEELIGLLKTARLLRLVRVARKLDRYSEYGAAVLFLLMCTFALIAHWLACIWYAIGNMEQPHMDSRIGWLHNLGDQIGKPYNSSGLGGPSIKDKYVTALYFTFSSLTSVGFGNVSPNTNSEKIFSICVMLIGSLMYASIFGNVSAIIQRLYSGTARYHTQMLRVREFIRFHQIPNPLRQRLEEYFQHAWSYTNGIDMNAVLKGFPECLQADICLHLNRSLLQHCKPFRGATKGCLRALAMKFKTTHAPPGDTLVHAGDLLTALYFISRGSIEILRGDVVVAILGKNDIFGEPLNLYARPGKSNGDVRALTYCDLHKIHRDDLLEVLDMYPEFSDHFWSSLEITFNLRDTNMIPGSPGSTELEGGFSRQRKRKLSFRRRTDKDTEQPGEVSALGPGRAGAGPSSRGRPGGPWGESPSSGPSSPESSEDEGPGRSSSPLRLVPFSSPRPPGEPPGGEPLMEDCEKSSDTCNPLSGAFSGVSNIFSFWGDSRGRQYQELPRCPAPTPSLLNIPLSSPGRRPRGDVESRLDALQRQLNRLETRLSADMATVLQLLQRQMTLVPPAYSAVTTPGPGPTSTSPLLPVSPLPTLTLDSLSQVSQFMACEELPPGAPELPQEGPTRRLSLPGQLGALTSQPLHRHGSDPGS
Out of some 310,000 compounds screened, about 14,000 (4.5%) showed an effect of 50% or more. Effects have a minus sign here. This is one part of a sample in which strong results are shown more often than they occur.
# label = yes if hERG current change (%, negative = inhibition) at 10uM >= 10% else no

* COc1ccccc1N1CCN(C(=O)c2cc3n(n2)C(C(F)(F)F)CC(c2ccco2)N3)CC1 (stereo not shown) | no
* COc1cc(N)c(Cl)cc1C(=O)NC1CN2CCC1CC2.Cl.O (stereo not shown) | no
* CN(C)S(=O)(=O)c1ccc(N2CCCC2)c(C(=O)NC2CCC(O)CC2)c1 (stereo not shown) | yes
* N#Cc1c(N)n(-c2cccc(C(=O)O)c2)c2nc3ccccc3nc12 | yes
* CCCC(=O)Nc1cc(C(=O)O)ccc1S(=O)(=O)c1ccc(C)cc1 | yes
* CCCc1c(O)nc(SCC(=O)NCc2ccco2)[nH]c1=O | yes
* CCCCC(=Nc1ccccc1OC)C1=C(O)CC(c2ccccc2)CC1=O (stereo not shown) | no
* COCCNC(=O)c1ccc(-n2c(SCc3cccnc3)nc3ccccc3c2=O)cc1 | no
* O=C(CSc1ccsc1[N+](=O)[O-])NCCc1ccccc1 | no
* Cc1c(N2CCCC2)cc2c(c1NC(=O)c1ccccc1Cl)C(C)(C)CC2(C)C | no

###

target: human ether-à-go-go-related gene (hERG) potassium channel (human); test: primary screen, population patch clamp on CHO cells stably expressing hERG; higher = less effect of the substance;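 also: peak tail current of the secondary pulse compared with the same well before compound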
The whole screen tested about 310,000 compounds, of which about 14,000 (4.5%) showed an effect of 50% or more. Effects have a minus sign here. Many of the other results were omitted from the sample, so strong results are more common in it than they were.
# hERG current change (%, negative = inhibition) at 10uM listing for each entry below
endpoint.name: hERG current change (%, negative = inhibition) at 10uM (%)

- CCCC1CCC(=C(C#N)C(N)=O)CC1 (stereo not shown): -32.8
- c1coc(-c2nc3c4c5c(sc4ncn3n2)CCCC5)c1: 10.6
- CCCCN(C(=O)CSc1nnnn1C)C1CCS(=O)(=O)C1 (stereo not shown): -28.1
- Cc1ccc(S(=O)(=O)N(C)CC(=O)N(CC(C)C)C2CCS(=O)(=O)C2)cc1 (stereo not shown): -2.85
- COc1ccc(CNC(=O)CN2C(=O)C3C4C=CC(C4)C3C2=O)cc1 (stereo not shown): 19.2
- O=C(c1ccc(-n2cnnn2)cc1)N1CCOCC1: -1.64
- NC(=O)CCCC1=NS(=O)(=O)c2ccccc2N1: 11.5
- O=C(Nc1ccc(-n2cnnn2)cc1)C(c1ccccc1)c1ccccc1: 8.56
- CN1[C@@H]2CC[C@H]1CC(OC1c3ccccc3CCc3ccccc31)C2.O=C(O)CC(O)(CC(=O)O)C(=O)O (stereo partly shown): -42.6
- Cc1cc2cc(CN(Cc3ccco3)C(=O)NCc3ccccc3)c(=O)[nH]c2cc1C: -6.54

###

Biological target: human ether-à-go-go-related gene (hERG) potassium channel (human, UniProt Q12809);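 also: peak tail current of the secondary pulse compared with the same well before compound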
Test: primary screen, population patch clamp on CHO cells stably expressing hERG; higher = less effect of the substance
Experimental: Briefly, Chinese hamster ovary (CHO) cells stably expressing the hERG channel were dislodged from tissue culture flasks and dispensed into PPC plates. […] During the recording, background leak currents were estimated by a 100 ms step to -80 mV from an initial holding potential of -70 mV and subtracted from the subsequent current measurement. The campaign was conducted in two phases using slight differences in recording protocol. […]
The campaign covered roughly 310,000 compounds. About 14,000 (4.5%) showed an effect of 50% or more. The effect is printed as a negative number. Many of the other results were omitted from the sample, so strong results are more common in it than they were.
# label = True if hERG current change (%, negative = inhibition) at 10uM >= -50% else False

* CN(C)CCNC(=O)/C(=C/c1ccc(-c2cccc(Cl)c2)o1)NC(=O)c1ccccc1 | False
* CN(C)CCNC(=O)/C(=C/c1ccc(-c2ccc(Cl)cc2Cl)o1)NC(=O)c1ccccc1 | False
* COc1ccc(Cn2c(C(F)(F)F)ccc(C(N)=O)c2=O)cc1 | True
* Cc1ccc(/C=C(/NC(=O)c2ccccc2)C(=O)NCCc2c[nH]c3ccccc23)o1 | True
* CCN(CC)CCCNC(=O)c1sc2ncn(CC(=O)Nc3ccc(C)c(Cl)c3)c(=O)c2c1C | True
* CN(C)CCNC(=O)/C(=C/c1ccc(-c2ccc(Cl)cc2)o1)NC(=O)c1ccccc1 | False
* CCN(CC)CCNC(=O)c1sc2ncn(CC(=O)Nc3ccc(C)c(Cl)c3)c(=O)c2c1C | False
* C=CCn1c(O)c(C(C)=NCCCN(C)C)c(=O)[nH]c1=O | True
* O=C(CSc1nnc(COc2ccccc2)n1-c1ccccc1)c1ccccc1 | True

###

target: human ether-à-go-go-related gene (hERG) potassium channel (human, UniProt Q12809); assay: primary screen, population patch clamp on CHO cells stably expressing hERG; higher = less effect of the substance;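 also: peak tail current of the secondary pulse compared with the same well before compound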
Out of some 310,000 compounds screened, about 14,000 (4.5%) showed an effect of 50% or more. Effects have a minus sign here. What follows is part of a selection rich in strong results, with near analogues and random picks from the rest.
# hERG current change (%, negative = inhibition) at 10uM listing for each entry below
endpoint.name: hERG current change (%, negative = inhibition) at 10uM

• Cc1ccc(CN2CCC(c3nc4ccc(Cl)cc4[nH]3)CC2)cc1 = -83%
• CC(C)NC(=O)c1cc(-c2cccs2)on1 = -4.89%
• CS(=O)(=O)N(CC(=O)N1CCCCCC1)c1cccc([N+](=O)[O-])c1 = -32.7%
• Cc1cccc(Nc2nnc(SCC(=O)NCc3cccs3)s2)c1 = 21.9%
• O=C(CCCn1c(=O)c2sccc2n(Cc2ccc(F)cc2)c1=O)NCc1ccco1 = -30.2%
• CN1CCN(S(=O)(=O)c2ccc3c4c(cccc24)C(=O)N3)CC1 = -0.59%
• Cc1ccc(C)c(OCCC(=O)OCC(=O)N2CCN(S(=O)(=O)c3ccc(Cl)cc3)CC2)c1 = -29.8%
• Cc1ccc(-c2c[n+]3c(n2-c2ccccc2)SCC3)cc1.[Br-] = -35.8%
• Cc1cccc(N=C2C(=O)Nc3c(Cl)cccc32)c1 = 18.5%
• Brc1ccc(-c2c[n+]3c(n2-c2ccccc2)SCC3)cc1.[Br-] = -49.4%
• CCN1CCN(CCCCSc2ccccc2)CC1.O=C(O)C(=O)O = -28.3%
• CCOC(=O)C1CCN(C(=O)C(C)Sc2ccc(Cl)cc2)CC1 (stereo not shown) = -27.9%
• CCOc1ccc(-n2c(-c3ccc(Cl)cc3)c[n+]3c2SCC3)cc1.[Br-] = -80.9%
• CC(=O)NC1=NN(C(C)=O)C(C)(CS(=O)(=O)c2ccc3ccccc3c2)S1 (stereo not shown) = -0.325%
• CCC1Sc2ccc(S(=O)(=O)CCC(=O)Nc3ccc(NC(C)=O)cc3)cc2NC1=O (stereo not shown) = 19%
• O=C(CCC1CC(=O)Nc2ccccc21)NCc1ccc(F)cc1 (stereo not shown) = -17.6%
• CCOCCn1cnc2sc(C(=O)NCC(=O)OCC)c(C)c2c1=O = -3.75%
• CCOC(=O)C1CCN(C(=O)CN(c2cccc(C(F)(F)F)c2)S(C)(=O)=O)CC1 = -25.9%
• Cc1ccc(N(CC(=O)N2CCN(Cc3ccccc3)CC2)S(C)(=O)=O)cc1C = -7.28%
• CC(=O)N1CCc2cc(S(=O)(=O)CCC(=O)NCc3ccco3)ccc21 = 12.5%
• O=C(NCC(=O)N1CCN(S(=O)(=O)c2ccccc2)CC1)c1ccc2ccccc2c1 = -53.5%
• O=S(=O)(c1ccc(Cl)cc1)N1CCC(c2nc3ccccc3[nH]2)CC1 = 1.05%
• Cc1ccc(SCCCCN2CCOCC2)cc1.Cl = -24.6%
• Clc1ccc(CN2CCC(c3nc4ccc(Cl)cc4[nH]3)CC2)cc1 = -80.7%
• CCOC(=O)C1CCN(C(=O)CSc2ccc(Cl)cc2)CC1 = -32.5%
• O=C(Cn1nnc(N2CCCC2)n1)N/N=C/c1ccc(Cl)cc1 = 13.1%
• O=C1OC(/C=C/c2ccccc2)=NC/1=C\c1cccnc1 = 19.4%
• COc1ccc(N2C(=O)CSCC2=O)cc1OC = 8.4%
• CC(=O)Nc1nc(C)c(Oc2ccc(C)cc2)c(=O)[nH]1 = -1.03%
• CCC(C)(C)n1nnnc1CN1CCC(c2nc3ccc(C)cc3[nH]2)CC1 = -48.3%
• CC(=O)N1CC2(C)CN(C(C)=O)CC(C)(C1)C2 = 23.8%
• CCOC(=O)C1CCN(CCCSc2ccccc2)CC1.Cl = -62.4%
• CCOC(=O)N1CCN(C(=O)CCN2C(=O)COc3ccccc32)CC1 = 0.87%
• O=C(N/N=C/c1c[nH]c2ccc(Br)cc12)c1ccn(Cc2ccc(Cl)cc2Cl)n1 = 6.95%
• O=C(NNC(=O)c1cc(-c2ccc(Cl)cc2Cl)nc2ccccc12)Nc1ccccc1 = 1.72%
• COc1ccc2c(Cl)c(C(=O)N/N=C3\CCCC(=O)C3)sc2c1 = -9.05%
• Cc1ccc(NC(=S)N2CCN(CCN3C(=O)c4cccc5cccc(c45)C3=O)CC2)cc1 = -1.29%
• COc1cccc(N2CCN(C(=O)c3cc4c(OC)c(OC)c(OC)cc4[nH]3)CC2)c1 = 9.11%
• CS(=O)(=O)N(CC(=O)N1CCOCC1)c1cccc([N+](=O)[O-])c1 = 6.28%
• C=CCc1ccccc1OCC(O)CN1CCN(CCN2C(=O)c3cccc4cccc(c34)C2=O)CC1.Cl (stereo not shown) = -57.8%
